// data source = ChEMBL document CHEMBL3507680

- Test Details: Human HepG2 cell viability assay in 384 well format
- Format: toxicity, cell-based
- Set-up: dose 125 nL, time 70.5 hour; concentration not given beside the values
- Condition Summary: HepG2 cells, read-out: Inhibition
Listing: cytotoxicity at 70.5 h of selected compounds
Report the figure in % without appending any unit label.

Illustrative cases are given below, each with its answer.
compound=COc1ccc(CC(=O)NCCCc2nnc3nc(C)cc(C)n23)cc1 readout_number=-10.1
compound=CN(C)c1cccc(C(=O)N2CCC(c3n[nH]c(C4CC4)n3)CC2)c1 readout_number=-5.06
compound=Cc1ccccc1-n1ncc2c(=O)n(CCN3CCCC3)cnc21 readout_number=26.8
compound=Cc1nn(C(C)C)c(C)c1NC(=O)c1ccc(F)cc1 readout_number=-2.59
compound=O=C(c1cocn1)N1C[C@H]2CCC[C@@]2(COCc2cccnc2)C1 readout_number=-1.51

Proceeding to the next compound to report its cytotoxicity at 70.5 h.
Fill in the blank: the reported cytotoxicity at 70.5 h of CC(Oc1cccc(F)c1)C(=O)N(CC(N)=O)C1CCCC1 (stereo not drawn) is ____. 0.47

---

Listing of entries alongside the reported cytotoxicity at 70.5 h.
- Test Details: Human HepG2 cell viability assay in 384 well format
- Format: toxicity, cell-based
- Design: dose 125 nL, time 70.5 hour; concentration not given beside the values
- Condition Summary: HepG2 cells, read-out: Inhibition
API: value field is a number in %; no unit string.

chem_smiles=CCn1cc(Cl)c(C(=O)NCc2cnn(C)c2)n1 readout_number=-0.0278
chem_smiles=CCn1cc(N2Cc3nc(N)ncc3C2=O)cn1 readout_number=29.8
chem_smiles=CN(C)C(=O)c1n[nH]c2c1CN(Cc1nccs1)CC2 readout_number=-1.73
chem_smiles=CCCNC(=O)c1c(-n2cnnn2)sc2c1CCC2 readout_number=-10.4
chem_smiles=Cc1cc(C(F)(F)F)nn1CCCNC(=O)C1CCCC1 readout_number=-1.45

Look at this molecule and give its reported cytotoxicity at 70.5 h. Cc1nc2ccccn2c1CC(=O)N[C@@H]1CC[C@@H](N2CCCC2)[C@@H]1O -5.16

---

The following compounds are listed with their measured cytotoxicity at 70.5 h values.
- Test Details: Human HepG2 cell viability assay in 384 well format
- Assay type: toxicity, cell-based
- Parameters: dose 125 nL, time 70.5 hour; concentration not given beside the values
- Condition Summary: HepG2 cells, read-out: Inhibition
The figure you give is taken to be in %; do not add the unit.

Would you please look over these solved cases?
compound="CC(CS(C)(=O)=O)N(C(=O)c1ccc(Cl)s1)C1CC1 (configuration not stated)" readout_number=-9.46
compound="COc1ccc(N(C)C(=O)C2CN(C)CCO2)cc1F (configuration not stated)" readout_number=-12.3

Sample Cc1nc(CN2CCCC(Nc3ncnc4ccccc34)C2)no1 (configuration not stated) — what was its cytotoxicity at 70.5 h? -5.36

Value lookup for cytotoxicity at 70.5 h; key = Cc1nccnc1N1C[C@H](NC(=O)CNS(C)(=O)=O)[C@@H](C2CC2)C1 -3.36

Data request, read-out cytotoxicity at 70.5 h, for COc1cc(N2CC[C@@H]3[C@@H](CC2)OCCN3CC2CC2)ncn1 -4.1

Would you kindly share the measured cytotoxicity at 70.5 h for CCC(CO)N(Cc1ccco1)C(=O)c1ccc(F)cc1Cl (configuration not stated) ? -2.27

Return reported cytotoxicity at 70.5 h; argument: Cc1[nH]ncc1CCCNC(=O)N1CCC(C(N)=O)CC1 -4.17

Could you share which cytotoxicity at 70.5 h value was measured for c1ccc(-c2ccc3nc(C4CCN(CC5CC5)CC4)nn3c2)cc1 ? -6.34

Record request: cytotoxicity at 70.5 h value, item CCOC(=O)C1(O)CCN(C(=O)Nc2ccc(CC)cc2)CC1 -4.17

Looking for the measured cytotoxicity at 70.5 h of Cc1ncc(CN2CCc3c(nc(-c4ccccn4)[nH]c3=O)C2)n1C , can you help? -8.75

# query: cytotoxicity at 70.5 h of entry N#Cc1cccc(N2CCC3(CCC(=O)N(CCCO)C3)CC2)n1 -9.82

Find the recorded cytotoxicity at 70.5 h belonging to Cc1ccc2oc(C(=O)N3CCC(C(=O)N4CCCC4)CC3)cc2n1 and report it. -14.6

Returns the measured cytotoxicity at 70.5 h for the input compound. Input: Cn1ncc(-c2cc(-c3cccc(O)c3)nc(N)c2C#N)c1C1CC1 37.1

Param item = CC(CCc1ccc(F)c(F)c1)NS(=O)(=O)Cc1ccon1 (configuration not stated) ; retrieve measured cytotoxicity at 70.5 h. 20.5

Query: cytotoxicity at 70.5 h; subject: Cc1nc(COc2nc(C(C)C)no2)cs1 -5.35

Endpoint output: cytotoxicity at 70.5 h of O=C(NC1CC1)[C@@H]1CCO[C@@H]2CCN(CCc3ccccc3)C[C@@H]21 . Value? -6.53

Name the reported cytotoxicity at 70.5 h value associated with the compound CN(C(=O)C(c1c(F)cccc1Cl)N(C)C)c1nccs1 (configuration not stated) 3.15

Request the reported cytotoxicity at 70.5 h associated with CC(C)(C)c1coc([C@@H]2COCCN2Cc2c[nH]cn2)n1 2.66

Fill in the blank: the reported cytotoxicity at 70.5 h of CCc1nc(C2CCCN2CCc2cccs2)no1 (configuration not stated) is ____. 17.3

# input compound: O=C1CC(c2cccc(O)c2)c2sc(C(=O)O)c(-c3ccccc3)c2N1 (configuration not stated) ; wanted: its cytotoxicity at 70.5 h 26.4
